Give inhibition for every item shown.
Molecular target: L-lactate dehydrogenase (Plasmodium falciparum (isolate CDC / Honduras)) (UniProt Q27743)
Sequence (Q27743 whole entry, looked up): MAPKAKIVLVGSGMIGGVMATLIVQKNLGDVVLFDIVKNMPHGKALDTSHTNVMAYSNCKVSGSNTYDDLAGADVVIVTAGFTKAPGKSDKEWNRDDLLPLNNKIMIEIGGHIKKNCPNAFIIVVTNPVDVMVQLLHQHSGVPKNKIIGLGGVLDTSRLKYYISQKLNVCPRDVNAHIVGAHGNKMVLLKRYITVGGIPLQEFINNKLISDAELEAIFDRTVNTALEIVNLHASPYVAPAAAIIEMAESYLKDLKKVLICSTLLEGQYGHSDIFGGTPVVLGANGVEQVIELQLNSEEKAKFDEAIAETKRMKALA
Assay: PfLDH activity inhibition – cell lysate, 3D7 strain, counter-screen for P. falciparum growth inhibition project (AID 2304);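 note: 0% = vehicle and 100% = reference inhibitor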
Conditions: P. falciparum 3D7 crude extract, LDH APAD/NBT absorbance; at 2 µM; stronger effect = higher value
Give a bare numeral; the unit % is implied.

[in] Item `CC[C@H]1CN2CC[C@H]1C[C@@H]2[C@@H](O)c1ccnc2ccc(OC)cc12` has what recorded inhibition?
[out] 1

[in] Return reported inhibition; argument: Cc1cccc2c(C3CCN(CC4CCC(NC(=O)/C=C/c5ccc(Cl)c(Cl)c5)CC4)CC3)c[nH]c12 (configuration not stated)
[out] -4

[in] Name the reported inhibition value associated with the compound `N#Cc1c(Cl)cccc1Oc1ccc(S(=O)(=O)N2CCC(CN3CCC(c4c[nH]c5ccccc45)CC3)CC2)cc1`
[out] 4

[in] I would be grateful if you could share the reported inhibition for CNC(=O)c1ccc2[nH]cc(C3CCN(CC4CCC(NC(=O)/C=C/c5ccccc5Cl)CC4)CC3)c2c1 (configuration not stated) .
[out] 3

[in] Given `CC(=O)Nc1ccc2[nH]cc(C3CCN(CC4CCN(C(=O)/C=C/c5ccc(Cl)c(Cl)c5)CC4)CC3)c2c1` , state its recorded inhibition.
[out] -1

[in] Fill blank: measured inhibition of the compound Cc1ccc(CC(C)NCC(O)c2cccc(Br)c2)cc1 (configuration not stated) is ____.
[out] 3

[in] // lookup inhibition for `Cc1cc2ccc(CNCCc3ccccc3Br)cc2nc1N`
[out] 1

[in] Name the reported inhibition value associated with the compound CS(=O)(=O)Nc1ccc2[nH]cc(C3C[C@H]4CC[C@@H](C3)N4CC3CCC(NC(=O)/C=C/c4ccc(Cl)c(Cl)c4)CC3)c2c1 (some centres not stated)
[out] 7

[in] What does the data say about its inhibition? Entry: `CC[C@H]1CN2CC[C@@H]1C[C@H]2[C@H](O)c1cc(-c2ccc(F)cc2)nc2ccc(O)cc12`
[out] -2

[in] I would be grateful if you could share the reported inhibition for CC(=O)C1(c2ccccc2)CCN(CCC2(c3ccc(Cl)c(Cl)c3)CN(C(=O)Nc3cccc(C(F)(F)F)c3)CCO2)CC1 (configuration not stated) .
[out] 8

[in] So what does the record say about inhibition for `O=C(/C=C/c1cc(F)cc(C(F)(F)F)c1)N1CCC(CN2CCC(c3c[nH]c4ccccc34)CC2)CC1` ?
[out] 3

[in] Query: inhibition; subject: `Cc1[nH]c2ccc(NS(C)(=O)=O)cc2c1C1CCN(CC2CCN(C(=O)/C=C/c3ccc(Cl)c(Cl)c3)CC2)CC1`
[out] -4

[in] Looking for the measured inhibition of `CC[C@H]1CN2CC[C@@H]1C[C@H]2[C@H](O)c1cc(N2CCC(c3ccccc3)CC2)nc2ccc(OC)cc12` , can you help?
[out] -5

[in] State the recorded inhibition for this entry: `C/C=C1\CN2CC[C@H]1C[C@@H]2[C@@H](O)c1ccnc2ccc(O)cc12`
[out] -4

[in] Query (compound): `CC(=O)N(Cc1cccc(-c2cccc(CNCCc3ccccc3)c2)c1)C1CCN(Cc2ccccc2)CC1` ; field requested: inhibition
[out] -3

[in] Find the recorded inhibition belonging to `O=C(Nc1ccc(Oc2ccccc2)cc1)N1CCC(CN2CCC(c3c[nH]c4ccccc34)CC2)CC1` and report it.
[out] -1

[in] Report inhibition for `c1ccc2c(NCCCCCCNc3c4c(nc5ccccc35)CCCC4)c3c(nc2c1)CCCC3` please.
[out] 3

[in] Quick one: inhibition for CS(=O)(=O)Nc1ccc2[nH]cc(C3CCN(CC4CCC(NC(=O)/C=C/c5ccccc5Cl)CC4)CC3)c2c1 (configuration not stated) ?
[out] 2

[in] Field request: inhibition | item: `O=C(O)c1ccc2nc(-c3ccc(-c4ccccc4)cc3)n(C3CCN(Cc4ccc(-c5ncc[nH]5)cc4)CC3)c2c1`
[out] 1

[in] Which measured inhibition value corresponds to `CCCCn1c(C)c(C(=O)OCC)c2cc(OC(C)=O)c(Br)cc21` ?
[out] -1

[in] Any idea what inhibition was measured for O=C(C=Cc1cc([N+](=O)[O-])ccc1Cl)NC1CCC(CN2CCC(c3c[nH]c4ccccc34)CC2)CC1 (configuration not stated) ?
[out] 1

[in] Item under review: `Cc1cc(CN2CCN(CCOC(c3ccccc3)c3ccccc3)CC2)ccc1O` . Reported inhibition?
[out] -1

[in] Need inhibition of CCc1ccc(CC(C)NCC(O)c2ccccc2)cc1 (configuration not stated) , thanks.
[out] -3

[in] Consider the compound shown here: CC[C@H]1CN2CC[C@H]1C[C@H]2C(O)c1cc(OC)nc2ccccc12 (some centres not stated) What is its recorded inhibition?
[out] -1

[in] Item OC(CNC12CC3CC(CC(C3)C1)C2)c1cccc(C(F)(F)F)c1 (configuration not stated) has what recorded inhibition?
[out] -3

[in] Fill blank: measured inhibition of the compound `CN(C)CCc1c[nH]c2ccc(C(=O)Nc3ccc(-c4ccncc4)cc3)cc12` is ____.
[out] -7

[in] I would be grateful if you could share the reported inhibition for C=CC12CCN(CC1)C(C(O)c1ccnc3ccc(OC)cc13)C2 (configuration not stated) .
[out] -9

[in] Which inhibition reading was recorded for the compound `NC(N)=NC(=O)Nc1ccc([N+](=O)[O-])c(Cl)c1` ?
[out] -10

[in] Could you tell me which inhibition is on file for `CC[C@H]1CN2CC[C@@H]1C[C@@H]2[C@@H](O)c1cc(-c2ccc(F)cc2)nc2ccc(OC)cc12` ?
[out] -4

[in] Query: inhibition; subject: O=C1Nc2cccc3c2C1(CCCCCN1CC=C(c2c[nH]c4ccccc24)CC1)CCC3 (configuration not stated)
[out] 3

[in] Query: inhibition; subject: `CCCCCCCc1cc(=O)c2ccccc2[nH]1`
[out] 1

[in] Record request: inhibition value, item `Cc1csc(-c2ccc3[nH]cc(C4=CCN(C)CC4)c3c2)n1`
[out] -3

[in] # input compound: `COc1ccc(F)cc1-c1csc(N(c2ccc(F)cc2)C2CCNCC2)n1` ; wanted: its inhibition
[out] -1

[in] Fill blank: measured inhibition of the compound `CC[C@H]1CN2CC[C@@H]1C[C@H]2[C@H](O)c1cc(-c2ccccc2)nc2ccc(O)cc12` is ____.
[out] -2

[in] Value lookup for inhibition; key = `CCOC(=O)c1c(C)n(C2CCCCC2)c2cc(Br)c(O)cc12`
[out] -3

[in] Can you share its inhibition? I mean this compound: `CC[C@H]1CN2CC[C@H]1C[C@H]2[C@@H](O)c1cc(OCCCN(C)C)nc2ccc(OC)cc12`
[out] -2

[in] I'd like to know its inhibition. The compound in question is CC1(C)CCCN(C(=O)Cc2ccc3c(c2)CCCC3)C1CN1CC=CC1 (configuration not stated)
[out] -1
